All values here come from ChEMBL document CHEMBL1938282.

species: Bos taurus; experiment: Selectivity index, ratio of Ki for bovine MAOB to Ki for bovine MAOA
Reported Endpoint: Ratio Ki

a. C=CCn1ccc(N2C[C@H](CNC)OC2=O)c1
b. C=CCn1ccc(N2C[C@H](CO)OC2=O)c1
IN: Sort a and b by Ratio Ki descending and give the first. Answer by stating the label of the chosen item.
OUT: b
(b: 1790, a: 20)

====

Molecular target: UniProt:P56560
Sequence (P56560 whole entry): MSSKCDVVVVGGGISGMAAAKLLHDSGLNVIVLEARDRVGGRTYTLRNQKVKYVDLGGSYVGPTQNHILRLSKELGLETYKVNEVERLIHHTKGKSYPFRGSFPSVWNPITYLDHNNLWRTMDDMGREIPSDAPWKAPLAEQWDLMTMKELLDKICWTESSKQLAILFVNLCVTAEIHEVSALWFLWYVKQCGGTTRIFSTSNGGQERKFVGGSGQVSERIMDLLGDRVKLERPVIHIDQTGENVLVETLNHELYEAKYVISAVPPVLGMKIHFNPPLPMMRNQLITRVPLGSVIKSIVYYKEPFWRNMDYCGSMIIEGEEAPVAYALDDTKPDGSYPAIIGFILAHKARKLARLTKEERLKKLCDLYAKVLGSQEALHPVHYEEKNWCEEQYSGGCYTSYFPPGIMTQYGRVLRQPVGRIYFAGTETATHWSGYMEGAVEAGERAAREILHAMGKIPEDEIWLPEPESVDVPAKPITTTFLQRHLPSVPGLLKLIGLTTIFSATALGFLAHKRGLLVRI
Reported Endpoint: Ki (µM)

These recorded examples may help you get a feel for the data.
- Smiles Input: "COC[C@H]1CN(c2ccn(C)c2)C(=O)O1"
  Result Number: 170
- Smiles Input: "CCn1ccc(N2C[C@H](CN=[N+]=[N-])OC2=O)c1"
  Result Number: 20

A. Cn1ccc(N2C[C@H](CN)OC2=O)c1
B. CCn1ccc(N2C[C@H](COC)OC2=O)c1
IN: Sort A and B by Ki descending and give the first. Answer by stating the label of the chosen item.
OUT: A

====

species on record: Bos taurus; assay: Selectivity index, ratio of Ki for bovine MAOB to Ki for bovine MAOA
Reported Endpoint: Ratio Ki

I. CCn1ccc(N2C[C@H](CNC)OC2=O)c1
II. C=CCn1ccc(N2C[C@H](COC)OC2=O)c1
IN: Sort I and II by Ratio Ki descending and give the first. Answer by stating the label of the chosen item.
OUT: II
(II: 200000, I: 225)

====

// Ki collected for Amine oxidase [flavin-containing] A (Bos taurus, UniProt P21398)
Reported Endpoint: Ki (nM)

- Compound: "CCn1ccc(N2C[C@H](CN=[N+]=[N-])OC2=O)c1"
  System Name: "Amine oxidase [flavin-containing] A (Bos taurus, UniProt P21398)"
  Unit: "nM"
  Result Number: 0.8
- Compound: "Cn1ccc(N2C[C@H](CN=[N+]=[N-])OC2=O)c1"
  System Name: "Amine oxidase [flavin-containing] A (Bos taurus, UniProt P21398)"
  Unit: "nM"
  Result Number: 200
- Compound: "C=CCn1ccc(N2C[C@H](CO)OC2=O)c1"
  System Name: "Amine oxidase [flavin-containing] A (Bos taurus, UniProt P21398)"
  Unit: "nM"
  Result Number: 350
- Compound: "C=CCn1ccc(N2C[C@H](CNC)OC2=O)c1"
  System Name: "Amine oxidase [flavin-containing] A (Bos taurus, UniProt P21398)"
  Unit: "nM"
  Result Number: 100
- Compound: "CCn1ccc(N2C[C@H](CO)OC2=O)c1"
  System Name: "Amine oxidase [flavin-containing] A (Bos taurus, UniProt P21398)"
  Unit: "nM"
  Result Number: 3

1. Cn1ccc(N2C[C@H](CN)OC2=O)c1
2. COC[C@H]1CN(c2ccn(C)c2)C(=O)O1
3. C=CCn1ccc(N2C[C@H](CN)OC2=O)c1
4. COC[C@H]1CN(c2ccc(OCC[C@@H](O)C(F)(F)F)cc2)C(=O)O1 [BEFLOXATONE]
IN: Could you please sort these 4 entries by Ki from high to low? Please, when replying, give the labels in the order that was requested.
OUT: 3, 2, 1, 4

====

Molecular target: Amine oxidase [flavin-containing] B (Bos taurus)
Sequence (P56560 whole entry): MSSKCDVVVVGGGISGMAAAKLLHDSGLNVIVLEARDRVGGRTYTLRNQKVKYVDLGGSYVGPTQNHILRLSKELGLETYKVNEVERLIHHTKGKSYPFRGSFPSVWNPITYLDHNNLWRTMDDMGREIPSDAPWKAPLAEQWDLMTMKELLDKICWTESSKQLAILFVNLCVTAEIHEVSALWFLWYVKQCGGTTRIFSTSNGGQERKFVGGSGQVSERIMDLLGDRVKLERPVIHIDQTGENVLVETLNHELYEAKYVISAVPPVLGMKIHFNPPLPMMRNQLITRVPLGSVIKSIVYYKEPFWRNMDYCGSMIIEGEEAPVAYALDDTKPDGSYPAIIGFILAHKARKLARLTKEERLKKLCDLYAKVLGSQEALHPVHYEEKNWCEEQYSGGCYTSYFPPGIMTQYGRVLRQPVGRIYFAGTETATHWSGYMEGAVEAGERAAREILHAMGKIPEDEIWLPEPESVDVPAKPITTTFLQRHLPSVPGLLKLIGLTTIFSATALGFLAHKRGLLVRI
pKi: −log10 of the molar value.
Reported Endpoint: pKi

A. C=CCn1ccc(N2C[C@H](COC)OC2=O)c1
B. C=CCn1ccc(N2C[C@H](CN)OC2=O)c1
C. C=CCn1ccc(N2C[C@H](CNC)OC2=O)c1
D. CCn1ccc(N2C[C@H](CN)OC2=O)c1
IN: Rank entries according to their pKi, from the largest number down. Please, when replying, give the labels in the order that was requested.
OUT: C, B, D, A

====

species: Bos taurus; test: Selectivity index, ratio of Ki for bovine MAOB to Ki for bovine MAOA
Reported Endpoint: Ratio Ki

- Molecule: "Cn1ccc(N2C[C@H](CN)OC2=O)c1"
  Ratio Ki: 18000
- Molecule: "CCn1ccc(N2C[C@H](CN)OC2=O)c1"
  Ratio Ki: 192
- Molecule: "COC[C@H]1CN(c2ccn(C)c2)C(=O)O1"
  Ratio Ki: 567
- Molecule: "C=CCn1ccc(N2C[C@H](CN)OC2=O)c1"
  Ratio Ki: 11
- Molecule: "CCn1ccc(N2C[C@H](CO)OC2=O)c1"
  Ratio Ki: 100
- Molecule: "CCn1ccc(N2C[C@H](CN=[N+]=[N-])OC2=O)c1"
  Ratio Ki: 25000
- Molecule: "Cn1ccc(N2C[C@H](CN=[N+]=[N-])OC2=O)c1"
  Ratio Ki: 1800

a. COC[C@H]1CN(c2ccc(OCC[C@@H](O)C(F)(F)F)cc2)C(=O)O1 [BEFLOXATONE]
b. C=CCn1ccc(N2C[C@H](CN=[N+]=[N-])OC2=O)c1
c. CCn1ccc(N2C[C@H](COC)OC2=O)c1
IN: Could you please sort these 3 entries by Ratio Ki from high to low? Please, when replying, give the labels in the order that was requested.
OUT: b, c, a
(b: 25000, c: 2170, a: 88)
